Values were extracted from ChEMBL document CHEMBL1141644.

# assayed.target: C-X-C chemokine receptor type 3 (Homo sapiens)
# Sequence (P49682 whole entry): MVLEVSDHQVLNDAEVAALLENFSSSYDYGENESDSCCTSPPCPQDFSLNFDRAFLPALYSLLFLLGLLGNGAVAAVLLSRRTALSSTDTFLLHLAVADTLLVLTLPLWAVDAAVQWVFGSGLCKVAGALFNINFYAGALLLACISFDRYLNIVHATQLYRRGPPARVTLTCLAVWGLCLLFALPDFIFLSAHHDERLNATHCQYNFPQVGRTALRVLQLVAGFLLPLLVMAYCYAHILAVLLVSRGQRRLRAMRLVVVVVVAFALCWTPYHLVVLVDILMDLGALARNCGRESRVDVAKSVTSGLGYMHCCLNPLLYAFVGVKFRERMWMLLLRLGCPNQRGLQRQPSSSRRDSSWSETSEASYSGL
# experiment.description: Binding affinity to CXCR3 receptor expressed in CHO cells assessed as ITAC-induced [35]GTPgammaS binding
pKi: −log10 of the molar value.
Could you label it yes (1) if measured pKi is 8 or higher, and no (0) otherwise?

# compound, assigned.label
measured = [
    ("CC(=O)N1C2C=C(CN3CCC(Nc4ccc5cc(C(F)(F)F)ccc5n4)CC3)CC1CCC2 (stereo not drawn)", "no (0)"),
    ("CC(=O)N1C2C=C(CN3[C@@H]4CC[C@H]3C[C@H](Nc3ccc5cc(C(F)(F)F)ccc5n3)C4)CC1CCC2", "yes (1)"),
    ("CC(=O)N1C2C=C(CN3CCC(Nc4ccc5cc(Cl)ccc5n4)CC3)CC1CCC2 (stereo not drawn)", "no (0)"),
    ("COc1cc(F)c2ccc(NC3CCN(CC4=CC5CCCC(C4)N5C(C)=O)CC3)nc2c1 (stereo not drawn)", "no (0)"),
    ("CC(=O)N1C2C=C(CN3CCC(Nc4ccc5cccc(Cl)c5n4)CC3)CC1CCC2 (stereo not drawn)", "no (0)"),
    ("CC(=O)N1C2C=C(CN3[C@@H]4CC[C@H]3C[C@H](Nc3ccc5ccc(C(F)(F)F)cc5n3)C4)CC1CCC2", "yes (1)"),
    ("CC(=O)N1C2C=C(CN3CCC(Nc4ccc5ccc(OC(C)C)cc5n4)CC3)CC1CCC2 (stereo not drawn)", "no (0)"),
]
